Test system: MALME-3M melanoma
Assay procedure: NCI tumour cell line growth inhibition, 48 h
Outcome measure: log10 of TGI (log10 of the value in µM)
Transform log10 | Measure TGI | Unit µM

Fill in the recorded log10 of TGI for this compound, with MALME-3M melanoma as test system: O=C(N=Nc1ccc(Cl)cc1Cl)NNc1ccc(Cl)cc1Cl
1.56

Fill in the recorded log10 of TGI for this compound, with MALME-3M melanoma as test system: N=c1ccc2nc3ccc(N)cc3sc-2c1
1.51

Fill in the recorded log10 of TGI for this compound, with MALME-3M melanoma as test system: CSc1ncnc2c1ncn2CC(=O)C1CCC2C3CCC4=CC(=O)CCC4(C)C3CCC12C (configuration not stated)
1.50

Fill in the recorded log10 of TGI for this compound, with MALME-3M melanoma as test system: Cn1cc(-c2cc(-c3cn(C)c4ccc(Cl)cc34)[nH]n2)c2cc(Cl)ccc21
1.83

Fill in the recorded log10 of TGI for this compound, with MALME-3M melanoma as test system: CN(Cc1ccc(F)cc1)c1ccc(CO)c(Cl)c1
1.86
